Value source: patent US9260408B2

Readings of EC50 for the listed compounds
# system: human CYP11B1 (Homo sapiens)
# Sequence (P15538 25-503): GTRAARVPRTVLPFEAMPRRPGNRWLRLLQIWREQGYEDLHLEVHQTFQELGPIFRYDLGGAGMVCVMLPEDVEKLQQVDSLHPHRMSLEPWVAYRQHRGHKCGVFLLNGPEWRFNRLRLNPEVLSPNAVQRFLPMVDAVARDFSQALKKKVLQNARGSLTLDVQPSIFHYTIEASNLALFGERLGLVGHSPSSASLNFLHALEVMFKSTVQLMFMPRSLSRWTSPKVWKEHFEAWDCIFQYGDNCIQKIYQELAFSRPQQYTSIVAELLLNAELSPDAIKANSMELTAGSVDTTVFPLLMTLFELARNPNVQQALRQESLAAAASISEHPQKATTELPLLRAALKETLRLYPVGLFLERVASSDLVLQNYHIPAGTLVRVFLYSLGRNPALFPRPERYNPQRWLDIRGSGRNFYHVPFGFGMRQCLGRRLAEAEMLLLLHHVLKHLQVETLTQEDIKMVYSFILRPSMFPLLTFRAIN
# assay name: G-402 cellular enzyme assay, human CYP11B1 (cortisol release, HTRF)
# stated conditions: G-402 cells expressing human CYP11B1; 1 μM Deoxycortisol
# Text: Herein we identified the use of the G-402 cell line as a host cell to ectopically express (transiently or stably) enzymes of the CYP11 family. […] Importantly the identified cell line G-402 expresses co-factors (adrenodoxin and adrenodoxin reductase) important for the activity of the CYP11 family and no relevant enzyme activity of the CYP11 family (in comparison to H295R cells) was detected in these cells. […]

{"input smiles": "CCS(=O)(=O)NC1(c2cncc(-c3cc4c(cc3F)N(C)C(=O)CC4)c2)CC1", "EC50, µM": 0.42}
{"input smiles": "CN1C(=O)CCc2cc(-c3cncc(OC4CN(C(=O)OC(C)(C)C)C4)c3)ccc21", "EC50, µM": 0.061}
{"input smiles": "CN1C(=O)CCc2cc(-c3cncc(CNC(=O)c4ncccc4Cl)c3)ccc21", "EC50, µM": 0.682}
{"input smiles": "CN1C(=O)CCc2cc(-c3cncc(C4(NC(=O)c5ncccc5Cl)CC4)c3)ccc21", "EC50, µM": 0.872}
{"input smiles": "COc1cc(C(=O)NCc2cncc(-c3ccc4c(c3)CCC(=O)N4C)c2)on1", "EC50, µM": 0.75}
{"input smiles": "CN1C(=O)CCc2cc(-c3cncc(CNS(=O)(=O)CC(F)(F)F)c3)ccc21", "EC50, µM": 2.85}
{"input smiles": "CN1C(=O)CCc2cc(-c3cncc(CNC(=O)c4cc(Cl)nnc4Cl)c3)c(F)cc21", "EC50, µM": 4.8}
{"input smiles": "COc1nc(Cl)cnc1C(=O)NCc1cncc(-c2ccc3c(c2)CCC(=O)N3C)c1", "EC50, µM": 0.094}
{"input smiles": "CN1C(=O)CCc2cc(-c3cncc(CNC(=O)c4cn(CC(F)(F)F)nc4C4CC4)c3)ccc21", "EC50, µM": 1.68}
{"input smiles": "Cc1nn(C)cc1C(=O)NCc1cncc(-c2ccc3c(c2)CCC(=O)N3C)c1", "EC50, µM": 0.36}
